# System: AGS
# protocol details: Cell growth inhibition assay (AGS)
# Format: cell-based
# test settings: Homo sapiens, 144 h, 6 days incubation, CellTiter-Glo
Flag rule - IC50 less than 30 nM flags rule met; the remaining entries get rule not met.

[
  {
    "molecule": "C#Cc1cccc2cc(O)cc(-c3cc4nc(OCC5(CN6CCOCC6)CC5)nc(N5CC6CCC(C5)N6)c4cc3C)c12",
    "classification": "rule not met"
  },
  {
    "molecule": "C#Cc1cccc2cc(O)cc(-c3c(CC)cc4c(N5CC6CCC(C5)N6)nc(OCC5(CN6CCOCC6)CC5)nc4c3F)c12",
    "classification": "rule met"
  },
  {
    "molecule": "C#Cc1cccc2cc(O)cc(-c3cc4nc(OCC5(CN6CCOCC6)CC5)nc(N5CC6CCC(C5)N6)c4cc3Cl)c12",
    "classification": "rule not met"
  },
  {
    "molecule": "N#Cc1c(N)sc2c(F)ccc(-c3ccc4c(N5CC6CCC(C5)N6)nc(OCC5(CN6CCOCC6)CC5)nc4c3F)c12",
    "classification": "rule not met"
  },
  {
    "molecule": "C#Cc1cccc2cc(O)cc(-c3c(C4CC4)cc4c(N5CC6CCC(C5)N6)nc(OCC5(CN6CCOCC6)CC5)nc4c3F)c12",
    "classification": "rule not met"
  },
  {
    "molecule": "C#Cc1cccc2cc(O)cc(-c3ccc4c(N5CC6CCC(C5)N6)nc(OCC5(CN6CCSCC6)CC5)nc4c3F)c12",
    "classification": "rule met"
  },
  {
    "molecule": "C#Cc1c(F)ccc2cc(O)cc(-c3c(Cl)cc4c(C5CC6CCC(C5)N6)nc(OC[C@@]56CCCN5C[C@H](F)C6)nc4c3F)c12 (stereo partly drawn)",
    "classification": "rule met"
  },
  {
    "molecule": "C#Cc1cccc2cc(O)cc(-c3ccc4c(N5CC6CCC(C5)N6)nc(OC[C@@]56CCCN5C[C@H](F)C6)nc4c3Cl)c12",
    "classification": "rule met"
  },
  {
    "molecule": "C#Cc1cccc2cc(O)cc(-c3ccc4c(N5CC6CCC(C5)N6)nc(OCC5(CN6CCOCC6)CC5)nc4c3C)c12",
    "classification": "rule not met"
  },
  {
    "molecule": "C#Cc1cccc2cc(O)cc(-c3c(Cl)cc4c(N5CC6CCC(C5)N6)nc(OCC5(CN6CCOCC6)CC5)nc4c3F)c12",
    "classification": "rule met"
  },
  {
    "molecule": "CCc1cccc2cc(O)cc(-c3ccc4c(N5CC6CCC(C5)N6)nc(OC[C@@]56CCCN5C[C@H](F)C6)nc4c3F)c12",
    "classification": "rule met"
  },
  {
    "molecule": "C#Cc1cccc2cc(O)cc(-c3c(F)cc4c(N5CC6CCC(C5)N6)nc(OCC5(CN6CCS(=O)(=O)CC6)CC5)nc4c3F)c12",
    "classification": "rule not met"
  }
]
